System: TNF
EXPERIMENT SUMMARY: Inhibition of TNF production by anti-CD3 stimulated human PBMCs (Luminex)
Assay type: cell-based
CONDITION DESCRIPTION: PBMC; anti-CD3 stimulated human PBMCs, 48 h
QUANTITY MEASURED: IC50

Return the recorded IC50 value; entry: CN(C)CCCOc1nn(Cc2ccccc2)c2ccccc12
43.1 µM
